Source: patent US20220339143A1

test: Single dose PK in healthy subjects (Cohorts 1, 2, S1 and S2), plasma; format: in vivo, human; conditions: human, plasma, iv, 28 mg, 28 mg single IV infusion, healthy subjects; read-out: Vz Mean
reported property: Vd (L)

{"smi": "COC(=O)N1CCC[C@H](NS(C)(=O)=O)[C@@H]1CO[C@H]1CC[C@@H](c2ccccc2)CC1", "value reported": 392}

====

assay: Single dose PK in patients with narcolepsy (Cohorts 5, 6 and 7), plasma; type: in vivo, human; details: human, plasma, intravenous, 44.8 mg, Cmpd A 44.8 mg; Mean; Cohort 5, 6, 7; read-out: Ceoi
reported property: concentration at 9 h (ng/mL)

{"compound": "COC(=O)N1CCC[C@H](NS(C)(=O)=O)[C@@H]1CO[C@H]1CC[C@@H](c2ccccc2)CC1 [Compound A]", "unit abbrev": "ng/mL", "value reported": 96.2}

====

assay: Single dose PK in healthy subjects (Cohorts 1, 2, S1 and S2), plasma; assay type: in vivo, human; conditions: human, plasma, intravenous, 7 mg; 0.33 hr After End of Infusion; read-out: Plasma concentration, Mean
Description: […]
reported property: concentration at 0.33 h after end of infusion (ng/mL)

{"molecule": "COC(=O)N1CCC[C@H](NS(C)(=O)=O)[C@@H]1CO[C@H]1CC[C@@H](c2ccccc2)CC1 [Compound A]", "unit abbrev": "ng/mL", "value reported": 7.34}

====

experiment: Single dose PK in healthy subjects (Cohorts 1, 2, S1 and S2), plasma; type: in vivo, human; details: human, plasma, intravenous, 112 mg; 6 hr; read-out: Plasma concentration, Q3
reported property: concentration at 6 h (ng/mL)

{"smi": "COC(=O)N1CCC[C@H](NS(C)(=O)=O)[C@@H]1CO[C@H]1CC[C@@H](c2ccccc2)CC1", "unit abbrev": "ng/mL", "value reported": 205}

====

assay: Single dose PK in patients with narcolepsy (Cohorts 5, 6 and 7), plasma; type: in vivo, human; conditions: human, plasma, intravenous, 5 mg, Cmpd A 5 mg; Median; Cohort 5, 6, 7; read-out: AUC24
reported property: AUC

{"smi": "COC(=O)N1CCC[C@H](NS(C)(=O)=O)[C@@H]1CO[C@H]1CC[C@@H](c2ccccc2)CC1", "reported property": "AUC", "value reported": "90.8 ng·h/mL"}

====

assay: Single dose PK in healthy subjects (Cohorts 1, 2, S1 and S2), plasma; format: in vivo, human; details: human, plasma, intravenous, 112 mg; 2 hr; read-out: Plasma concentration, Median

{"smi": "COC(=O)N1CCC[C@H](NS(C)(=O)=O)[C@@H]1CO[C@H]1CC[C@@H](c2ccccc2)CC1", "concentration at 2 h [ng/mL]": 207}

====

assay: Single dose PK in healthy subjects (Cohorts 1, 2, S1 and S2), plasma; format: in vivo, human; settings: human, plasma, intravenous, 180 mg; 6 hr; read-out: Plasma concentration, Mean

{"smi": "COC(=O)N1CCC[C@H](NS(C)(=O)=O)[C@@H]1CO[C@H]1CC[C@@H](c2ccccc2)CC1", "concentration at 6 hr / ng/mL": 292}

====

assay: Single dose PK in healthy subjects (Cohorts 1, 2, S1 and S2), plasma; type: in vivo, human; details: human, plasma, iv, 7 mg, 7 mg single IV infusion, healthy subjects; read-out: Ceoi Geo Mean

{"compound": "COC(=O)N1CCC[C@H](NS(C)(=O)=O)[C@@H]1CO[C@H]1CC[C@@H](c2ccccc2)CC1 [Compound A]", "concentration at 9 h / ng/mL": 13.4}

====

assay: Single dose PK in patients with narcolepsy (Cohorts 5, 6 and 7), plasma; type: in vivo, human; conditions: human, plasma, intravenous, 44.8 mg, Cmpd A 44.8 mg; Mean; Cohort 5, 6, 7; read-out: Vss
reported property: Vd (L)

{"smi": "COC(=O)N1CCC[C@H](NS(C)(=O)=O)[C@@H]1CO[C@H]1CC[C@@H](c2ccccc2)CC1", "reported property": "Vd", "unit abbrev": "L", "value reported": 117}

====

experiment: Single dose PK in healthy subjects (Cohorts 1, 2, S1 and S2), plasma; format: in vivo, human; conditions: human, plasma, iv, 14 mg, 14 mg single IV infusion, healthy subjects; read-out: AUClast Geo Mean

{"smi": "COC(=O)N1CCC[C@H](NS(C)(=O)=O)[C@@H]1CO[C@H]1CC[C@@H](c2ccccc2)CC1", "AUC(0-t)": "323 ng·h/mL"}

====

test: Single dose PK in patients with narcolepsy (Cohorts 5, 6 and 7), plasma; format: in vivo, human; settings: human, plasma, iv, 11.2 mg; 9 hr; NT1, single 9 h IV infusion; read-out: Plasma concentration, Median

{"smi": "COC(=O)N1CCC[C@H](NS(C)(=O)=O)[C@@H]1CO[C@H]1CC[C@@H](c2ccccc2)CC1", "concentration at 9 h, ng/mL": 21.9}

====

assay: Single dose PK in healthy subjects (Cohorts 1, 2, S1 and S2), plasma; assay type: in vivo, human; conditions: human, plasma, iv, 240 mg, 240 mg single IV infusion; 2 hr; read-out: Plasma Concentration of Cmpd A, Q3

{"smi": "COC(=O)N1CCC[C@H](NS(C)(=O)=O)[C@@H]1CO[C@H]1CC[C@@H](c2ccccc2)CC1", "concentration at 2 hr": "452 ng/mL"}

====

test: Single dose PK in healthy subjects (Cohorts 1, 2, S1 and S2), plasma; type: in vivo, human; settings: human, plasma, iv, 7 mg, 7 mg single IV infusion, healthy subjects; read-out: tmax Median

{"smi": "COC(=O)N1CCC[C@H](NS(C)(=O)=O)[C@@H]1CO[C@H]1CC[C@@H](c2ccccc2)CC1", "Tmax [h]": 3}

====

assay: Single dose PK in patients with narcolepsy (Cohorts 5, 6 and 7), plasma; assay type: in vivo, human; conditions: human, plasma, iv, 5 mg; 1 hr; NT1, single 9 h IV infusion; read-out: Plasma concentration, Median

{"compound": "COC(=O)N1CCC[C@H](NS(C)(=O)=O)[C@@H]1CO[C@H]1CC[C@@H](c2ccccc2)CC1 [Compound A]", "concentration at 1 h (ng/mL)": 6.25}

====

test: Single dose PK in healthy subjects (Cohorts 1, 2, S1 and S2), plasma; assay type: in vivo, human; details: human, plasma, intravenous, 56 mg; 1 hr; read-out: Plasma concentration, Maximum

{"molecule": "COC(=O)N1CCC[C@H](NS(C)(=O)=O)[C@@H]1CO[C@H]1CC[C@@H](c2ccccc2)CC1 [Compound A]", "concentration at 1 h / ng/mL": 91.5}

====

experiment: Single dose PK in healthy subjects (Cohorts 1, 2, S1 and S2), plasma; format: in vivo, human; conditions: human, plasma, iv, 180 mg, 180 mg single IV infusion, healthy subjects; read-out: AUC24 Mean

{"smi": "COC(=O)N1CCC[C@H](NS(C)(=O)=O)[C@@H]1CO[C@H]1CC[C@@H](c2ccccc2)CC1", "AUC": "3000 ng·h/mL"}

====

assay: Single dose PK in healthy subjects (Cohorts 1, 2, S1 and S2), plasma; assay type: in vivo, human; details: human, plasma, intravenous, 14 mg; 9 hr; read-out: Plasma concentration, Median
reported property: concentration at 9 h (ng/mL)

{"compound": "COC(=O)N1CCC[C@H](NS(C)(=O)=O)[C@@H]1CO[C@H]1CC[C@@H](c2ccccc2)CC1 [Compound A]", "reported property": "concentration at 9 h", "unit abbrev": "ng/mL", "value reported": 30.8}

====

test: Single dose PK in healthy subjects (Cohorts 1, 2, S1 and S2), plasma; type: in vivo, human; conditions: human, plasma, intravenous, 28 mg; 2 hr; read-out: Plasma concentration, Minimum

{"compound": "COC(=O)N1CCC[C@H](NS(C)(=O)=O)[C@@H]1CO[C@H]1CC[C@@H](c2ccccc2)CC1 [Compound A]", "concentration at 2 hr / ng/mL": 33.7}

====

assay: Single dose PK in healthy subjects (Cohorts 1, 2, S1 and S2), plasma; assay type: in vivo, human; conditions: human, plasma, intravenous, 14 mg; 3 hr; read-out: Plasma concentration, Median
reported property: concentration at 3 h (ng/mL)

{"compound": "COC(=O)N1CCC[C@H](NS(C)(=O)=O)[C@@H]1CO[C@H]1CC[C@@H](c2ccccc2)CC1 [Compound A]", "unit abbrev": "ng/mL", "value reported": 34.3}

====

test: Single dose PK in healthy subjects (Cohorts 1, 2, S1 and S2), plasma; assay type: in vivo, human; conditions: human, plasma, intravenous, 240 mg; 2 hr; read-out: Plasma concentration, Q1

{"smi": "COC(=O)N1CCC[C@H](NS(C)(=O)=O)[C@@H]1CO[C@H]1CC[C@@H](c2ccccc2)CC1", "concentration at 2 hr": "349 ng/mL"}

====

test: Single dose PK in healthy subjects (Cohorts 1, 2, S1 and S2), plasma; format: in vivo, human; details: human, plasma, intravenous, 28 mg; 1.5 hr; read-out: Plasma concentration, Minimum
reported property: concentration at 1.5 hr (ng/mL)

{"smi": "COC(=O)N1CCC[C@H](NS(C)(=O)=O)[C@@H]1CO[C@H]1CC[C@@H](c2ccccc2)CC1", "unit abbrev": "ng/mL", "value reported": 27.2}
